# System: MALME-3M melanoma
# experiment: NCI tumour cell line growth inhibition, 48 h; in the data active = GI50 below about 0.43 µM; inactive = the rest
Classes used: t = active, f = inactive

[
  {
    "compound": "O=C1/C(=C/c2ccc(O)cc2)COc2ccc(-c3ccccc3)cc21",
    "assayed system": "MALME-3M melanoma",
    "category label": "f"
  },
  {
    "compound": "C[C@@H]1CN(CC(=O)N2CC(C)(C)c3nc(CO)c(Cc4ccc(F)cc4)cc32)[C@@H](CN2CCOC[C@H]2C)CN1",
    "assayed system": "MALME-3M melanoma",
    "category label": "f"
  },
  {
    "compound": "Fc1cccc(COc2ccc(Nc3ncnc4cc(-c5ccc[nH]5)sc34)cc2Cl)c1",
    "assayed system": "MALME-3M melanoma",
    "category label": "f"
  },
  {
    "compound": "CC[C@H](CC#N)OC(=O)N[C@@H](C)c1cccc(NC(=O)Nc2ccc(-c3cnco3)c(OC)c2)c1",
    "assayed system": "MALME-3M melanoma",
    "category label": "t"
  },
  {
    "compound": "ClCc1c(Cl)c(Cl)c(Cl)c(CCl)c1Cl",
    "assayed system": "MALME-3M melanoma",
    "category label": "f"
  },
  {
    "compound": "O=C1C(Cl)=C(Nc2cccc(O)c2)C(=O)N1c1cc(Cl)c(Cl)cc1Cl",
    "assayed system": "MALME-3M melanoma",
    "category label": "f"
  },
  {
    "compound": "CC1OC2CC(=O)OC2C2=C1C(=O)c1c(O)c3c(c(O)c1C2=O)C1CC(O)C3(O)C(C)O1 (stereo not drawn)",
    "assayed system": "MALME-3M melanoma",
    "category label": "t"
  },
  {
    "compound": "C=C1C(=O)O[C@H]2[C@H]1CC/C(COC(=O)N1CCC[C@H]1C(=O)Nc1ccc(OC)c(C(N)=O)c1O)=C\\CC[C@@]1(C)O[C@@H]21",
    "assayed system": "MALME-3M melanoma",
    "category label": "f"
  },
  {
    "compound": "Clc1nc(Cl)c2ncn(Cc3ccc(COc4cccc(OCc5ccc(Cn6cnc7c(Cl)nc(Cl)nc76)cc5)c4)cc3)c2n1",
    "assayed system": "MALME-3M melanoma",
    "category label": "f"
  },
  {
    "compound": "COc1ccc(-c2cn(-c3ccccc3)c(-c3ccccc3)n2)cc1OC",
    "assayed system": "MALME-3M melanoma",
    "category label": "f"
  },
  {
    "compound": "C#CC[C@@H]1C[C@]2(C)[C@H]3CC=C4[C@H]5CC(C)(C)CC[C@]5(C(=O)NCCCCN)CC[C@@]4(C)[C@]3(C)CC[C@H]2C(C)(C)[C@H]1OC(C)=O",
    "assayed system": "MALME-3M melanoma",
    "category label": "f"
  },
  {
    "compound": "CC(C)(C)c1ccc(S(=O)(=O)N[C@H]2CC[C@H]3[C@@H]4CCc5cc(OS(=O)(=O)O)ccc5[C@H]4CC[C@]23C)cc1",
    "assayed system": "MALME-3M melanoma",
    "category label": "f"
  },
  {
    "compound": "CN(C)c1ccc2cc(-c3ccccc3F)c(N)nc2c1",
    "assayed system": "MALME-3M melanoma",
    "category label": "f"
  }
]
